system: HCV genotype 1b I389luc-ubi-neo/NS3-3'/5.1 replicon in Huh5.2 cells; assay: microbe, parasite or virus in culture; assay type: cell-based, Hepatitis C Virus
Assay readout: Selectivity index (CC50/EC50)

Illustrative cases are given below, each with its answer.
Find the recorded Selectivity index (CC50/EC50) belonging to CC(=O)CC[C@H]1C(=O)N[C@@H](C(C)C)C(=O)N[C@@H](Cc2cccc(O)c2)C(=O)N2CCCC(N2)C(=O)O[C@H](/C(C)=C/C=C/C(=O)N2CCCCO2)C/C=C/C=C/[C@H](O)[C@H](C)[C@H]1O (stereo partly shown) and report it.
>800

Find the recorded Selectivity index (CC50/EC50) belonging to CCN(CC)C(=O)/C=C/C=C(\C)[C@@H]1C/C=C/C=C/[C@H](O)[C@H](C)[C@@H](O)[C@@H](CCC(C)=O)C(=O)N[C@@H](C(C)C)C(=O)N[C@@H](Cc2cccc(O)c2)C(=O)N2CCCC(N2)C(=O)O1 (stereo partly shown) and report it.
>490

Continuing:
Find the recorded Selectivity index (CC50/EC50) belonging to CC(=O)CC[C@H]1C(=O)N[C@@H](C(C)C)C(=O)N[C@@H](Cc2cccc(O)c2)C(=O)N2CCCC(N2)C(=O)O[C@H](/C(C)=C/C=C/C(=O)NC2CCCCC2)C/C=C/C=C/[C@H](O)[C@H](C)[C@H]1O (stereo partly shown) and report it.
>298

Find the recorded Selectivity index (CC50/EC50) belonging to CON(C)C(=O)/C=C/C=C(\C)[C@@H]1C/C=C/C=C/[C@H](O)[C@H](C)[C@@H](O)[C@@H](CCC(C)=O)C(=O)N[C@@H](C(C)C)C(=O)N[C@@H](Cc2cccc(O)c2)C(=O)N2CCCC(N2)C(=O)O1 (stereo partly shown) and report it.
>617

* * *

Documented CC50 at 72 h across a set of molecules
assay: Anti-metabolic effect (MTS) in the replicon cell line; conditions: human
Give the number; µM is assumed, so skip it.

Find the recorded CC50 at 72 h belonging to CON(C)C(=O)/C=C/C=C(\C)[C@@H]1C/C=C/C=C/C=C(\C)[C@@H](O)[C@@H](CCC(C)=O)C(=O)N[C@@H](C(C)C)C(=O)N[C@@H](Cc2cccc(O)c2)C(=O)N2CCCC(N2)C(=O)O1 (stereo partly shown) [compound 29] and report it.
20.2

Okay, now this molecule:
Find the recorded CC50 at 72 h belonging to C=CCNC(=O)/C=C/C=C(\C)[C@@H]1C/C=C/C=C/[C@H](O)[C@H](C)[C@@H](O)[C@@H](CCC(C)=O)C(=O)N[C@@H](C(C)C)C(=O)N[C@@H](Cc2cccc(O)c2)C(=O)N2CCCC(N2)C(=O)O1 (stereo partly shown) [compound 25] and report it.
48.4

* * *

system: HCV genotype 1b I389luc-ubi-neo/NS3-3'/5.1 replicon in Huh5.2 cells; assay: microbe, parasite or virus in culture; assay type: cell-based, Hepatitis C Virus; details: Hepatitis C virus, Huh-5-2, 72 h
Assay readout: pEC50
Worth noting: pEC50 values are minus log10 of concentrations stated in mol/L.

Find the recorded pEC50 belonging to CC(=O)CC[C@H]1C(=O)N[C@@H](C(C)C)C(=O)N[C@@H](Cc2cccc(O)c2)C(=O)N2CCCC(N2)C(=O)O[C@H](/C(C)=C/C=C/C(=O)N(CC(C)C)CC(C)C)C/C=C/C=C/[C@H](O)[C@H](C)[C@H]1O (stereo partly shown) and report it.
6.51

Find the recorded pEC50 belonging to CC(=O)CC[C@H]1C(=O)N[C@@H](C(C)C)C(=O)N[C@@H](Cc2cccc(O)c2)C(=O)N2CCCC(N2)C(=O)O[C@H](/C(C)=C/C=C/C(=O)Nc2ccc(-c3ccccc3)cc2)C/C=C/C=C/[C@H](O)[C@H](C)[C@H]1O (stereo partly shown) and report it.
6.68

Find the recorded pEC50 belonging to CC(=O)CC[C@H]1C(=O)N[C@@H](C(C)C)C(=O)N[C@@H](Cc2cccc(O)c2)C(=O)N2CCCC(N2)C(=O)O[C@H](/C(C)=C/C=C/C(=O)N(C)C)C/C=C/C=C/[C@H](O)[C@H](C)[C@H]1O (stereo partly shown) and report it.
6.46

Okay, now this compound:
Find the recorded pEC50 belonging to CC(=O)CC[C@H]1C(=O)N[C@@H](C(C)C)C(=O)N[C@@H](Cc2cccc(O)c2)C(=O)N2CCCC(N2)C(=O)O[C@H](/C(C)=C/C=C/C(=O)Nc2ccccn2)C/C=C/C=C/[C@H](O)[C@H](C)[C@H]1O (stereo partly shown) and report it.
6.78

* * *

tested on: HCV genotype 1b I389luc-ubi-neo/NS3-3'/5.1 replicon in Huh5.2 cells; test: microbe, parasite or virus in culture; assay type: cell-based, Hepatitis C Virus
Assay readout: Selectivity index (CC50/EC50)
Could you keep your reply to the number by itself?

// fetch HCV genotype 1b I389luc-ubi-neo/NS3-3'/5.1 replicon in Huh5.2 cells Selectivity index (CC50/EC50) for CON(C)C(=O)/C=C/C=C(\C)[C@@H]1C/C=C/C=C/C=C(\C)[C@@H](O)[C@@H](CCC(C)=O)C(=O)N[C@@H](C(C)C)C(=O)N[C@@H](Cc2cccc(O)c2)C(=O)N2CCCC(N2)C(=O)O1 (some centres unmarked)
68.4

* * *

test system: HCV genotype 1b I389luc-ubi-neo/NS3-3'/5.1 replicon in Huh5.2 cells; experiment: microbe, parasite or virus in culture; format: cell-based, Hepatitis C Virus
Assay readout: Selectivity index (CC50/EC50)
Could you keep your reply to the number by itself?

Find the recorded Selectivity index (CC50/EC50) belonging to C/C=C/C[C@H]1C(=O)N[C@@H](C(C)C)C(=O)N[C@@H](Cc2cccc(O)c2)C(=O)N2CCCC(N2)C(=O)O[C@H](/C(C)=C/C=C/C(=O)N(C)OC)C/C=C/C=C/[C@H](O)[C@H](C)[C@H]1O (some centres unmarked) and report it.
28.2

Okay, now this compound:
Find the recorded Selectivity index (CC50/EC50) belonging to CC(=O)CC[C@H]1C(=O)N[C@@H](C(C)C)C(=O)N[C@@H](Cc2cccc(O)c2)C(=O)N2CCCC(N2)C(=O)O[C@H](/C(C)=C/C=C/C(=O)N(C)C2CCCCC2)C/C=C/C=C/[C@H](O)[C@H](C)[C@H]1O (some centres unmarked) and report it.
449

* * *

Documented solubility at 4 h across a set of compounds
experiment: Solubility in PBS pH 7.4; conditions: PBS, pH 7.4, aqueous buffer, kinetic from dmso stock

Illustrative cases are given below, each with its answer.
Find the recorded solubility at 4 h belonging to CON(C)C(=O)/C=C/C=C(\C)[C@@H]1C/C=C/C=C/[C@H](O)[C@H](C)[C@@H](O)[C@@H](CCC(C)=O)C(=O)N[C@@H](C(C)C)C(=O)N[C@@H](Cc2cccc(O)c2)C(=O)N2CCCC(N2)C(=O)O1 (some centres unmarked) and report it.
> 100 µM

Find the recorded solubility at 4 h belonging to C/C=C/C[C@H]1C(=O)N[C@@H](C(C)C)C(=O)N[C@@H](Cc2cccc(O)c2)C(=O)N2CCCC(N2)C(=O)O[C@H](/C(C)=C/C=C/C(=O)N(C)OC)C/C=C/C=C/[C@H](O)[C@H](C)[C@H]1O (some centres unmarked) and report it.
78 µM

Continuing:
Find the recorded solubility at 4 h belonging to CC(=O)CC[C@H]1C(=O)N[C@@H](C(C)C)C(=O)N[C@@H](Cc2cccc(O)c2)C(=O)N2CCCC(N2)C(=O)O[C@H](/C(C)=C/C=C/C(=O)N(C)C)C/C=C/C=C/[C@H](O)[C@H](C)[C@H]1O (some centres unmarked) and report it.
> 100 µM

Find the recorded solubility at 4 h belonging to CNC(=O)/C=C/C=C(\C)[C@@H]1C/C=C/C=C/[C@H](O)[C@H](C)[C@@H](O)[C@@H](CCC(C)=O)C(=O)N[C@@H](C(C)C)C(=O)N[C@@H](Cc2cccc(O)c2)C(=O)N2CCCC(N2)C(=O)O1 (some centres unmarked) and report it.
> 100 µM

Find the recorded solubility at 4 h belonging to CCN(CC)C(=O)/C=C/C=C(\C)[C@@H]1C/C=C/C=C/[C@H](O)[C@H](C)[C@@H](O)[C@@H](CCC(C)=O)C(=O)N[C@@H](C(C)C)C(=O)N[C@@H](Cc2cccc(O)c2)C(=O)N2CCCC(N2)C(=O)O1 (some centres unmarked) and report it.
> 100 µM

* * *

experiment: Anti-metabolic effect (MTS) in the replicon cell line; conditions: human
Assay readout: CC50 at 72 h (µM)
Give the number; µM is assumed, so skip it.

Find the recorded CC50 at 72 h belonging to CC(=O)CC[C@H]1C(=O)N[C@@H](C(C)C)C(=O)N[C@@H](Cc2cccc(O)c2)C(=O)N2CCCC(N2)C(=O)O[C@H](/C(C)=C/C=C/C(=O)N(C)C2CCCCC2)C/C=C/C=C/[C@H](O)[C@H](C)[C@H]1O (some centres unmarked) and report it.
66.4
